method notes: yeast display, Sf9 membrane polyspecificity reagent, FACS + sequencing; frameworks hold sequencing errors
readout type: polyreactivity (PSR sort gate)

// known answers, use as guide
| biosequence | reported value |
| --- | --- |
| QVQLVESGGGLVQAGGSLRLSCAASGSIFRYYVTGWYRQAPGKERELVATISSSGGRTYYADSVKGRFTISRDNAKNTVYLQMNSLKPEDTAVYYCNARTSPYSGYSGRYYWGQGTQVTVSS | high polyreactivity |
| QVQLVESGGGVVQAGGSLRLSCAASGSIFYSYAMGWYRQAPGKERELVAAISSSGTSTYYADSVKGRFTISRDNAKNTVYLQMNSLKPEDTAVYYCAARFYGTSYYRYNYWGQGTQVTVSS | high polyreactivity |
| QVQLVESGGGLVKAGGSLRLSCSASGSTFRSNAMGWYRQAPGKERELVAGISSGGGTYYADSVKGRFTISRDNAKNTVYLQMNSLKPEDTAVYYCAKVVYFGWSVQYYYWGQGTQVTVSS | low polyreactivity |
| QGQLVESGGGLGQEGCSLRLSCAASGNTFIINAMGWYRQARGNERELVAAITSGGSTNYADSVKGRFTISGDNAKNTVYLQMNSLKPEDTAVYDCAARTRLYYYKVRKYRMDYWGQGTQVTVSS | low polyreactivity |
| QVQLVESGGGLVQAGGSLRLSCAASGFTFVFYAMGWYRQAPGKERELVAGISRTGGSTYYADSVKGRFTISRDNAKNTVYLQMNSLKPEDTAVYYCNAARFTRRDYWGQGTQVTVSS | high polyreactivity |
| QVQLVESGGGLVQAGGSLRLSCAASGSTFDNTMGWYRQEPGKEKEFVATISWRGGSTYYADSVKGRFTISRDNAKNTVYLQMNSLKPEDTAVYYCAAEVDYRVYWNEVDYWGQGTQVNVSS | low polyreactivity |

Kindly review the next sequence as well.
Query string: Provide one value: measured polyreactivity (PSR sort gate) of "QVQLVESGGGLVQAGGSLRLSCAASGSISVRNVMGWYRQAPGKERELVATIRRTGGSTSYADSVKGRFTISRDNAKNTVYVQMNSLKPEDTAVYYCAAVGYTTYRRYDYWGQGTQVTVSS"
Result string: low polyreactivity

Ref: the nanobody polyreactivity screen of Harvey et al. (2022)
